Ref: the supplement of paper PMC4466140

Reported values of SPOT peptide array binding signal intensity for individual entries
Biological target: CaHse1
Experiment: SPOT peptide array binding signal intensity (averaged, normalized) (arbitrary units (background-subtracted, floor 0; scale differs between SH3 domains)); higher = stronger binding of the SH3 domain to the peptide
Just the number, please, no unit attached.

Look over these answered cases.
>  <binder>
KTKQQKPAIPQKKSF

>  <testResult>
1.75

$$$$
>  <binder>
TYNRTAFQIPGDQSI

>  <testResult>
2.5

$$$$
>  <binder>
QRKSLRRPTLSKPAV

>  <testResult>
10

$$$$
>  <binder>
SAPDIPPRSPNRNAH

>  <testResult>
9.75

$$$$
>  <binder>
MARRRLPDRPPNGIG

>  <testResult>
89

$$$$
>  <binder>
PPIPNAPLSPAPAVP

>  <testResult>
0.5

$$$$
>  <binder>
NSMRPPLLIPAATTK

>  <testResult>
103

$$$$
>  <binder>
NPLPKEPRLPKRKVA

>  <testResult>
10.8

$$$$
>  <binder>
HGKRRAPLLLAKLDV

>  <testResult>
7.75

$$$$
>  <binder>
IKTRSVPKIPSIESV

>  <testResult>
5

$$$$

GET /value?item= "SHRLWLYAAPKRPKT" &field=SPOT peptide array binding signal intensity returns 26.2

GET /value?item= "VNFRRIPTGPDSPPT" &field=SPOT peptide array binding signal intensity returns 3.5
